# Tested on: P388 Leukemia
# protocol.notes: Minimum effective dose in P388 tumor bearing mice
# Assay type: in vivo
# test.settings: ip once on days 1, 5, and 9; from plotted log-dose response data
*1 amine or outer side, *2 acyl side, *3 side chain or, on linkers, in order; H or OH if unused. Where a SMILES comes first, the peptide text is derived from it. Bridges are numbered along the chain shown (N, C = ends). Roman numbers before positions name the chains, in order. [ ]: non-standard residue; d: D form. Actinocin(9to1) = Cc1c2oc3c(C)ccc(C(=O)[*:1])c3nc-2c(C(=O)[*:2])c(N)c1=O; NMeV = CN[C@H](C(=O)O)C(C)C; Sar = CNCC(=O)O
parameter.measured: MED (minimum effective dose), dose giving 45% increase in life span over control (milligram/killogram)

molecule	tgt	unit.abbrev	reported.result
Cc1c2oc3c(C)ccc(C(=O)N[C@@H]4C(=O)N[C@H](C(C)C)C(=O)N5CCC[C@H]5C(=O)N(C)CC(=O)N(C)[C@@H](C(C)C)C(=O)O[C@@H]4C)c3nc-2c(C(=O)N[C@@H]2C(=O)N[C@H](C(C)C)C(=O)N3CCC[C@H]3C(=O)N(C)CC(=O)N(C)[C@@H](C(C)C)C(=O)O[C@@H]2C)c(N)c1=O [AMD (1), Actinomycin D] (I: T[dV]P[Sar][NMeV] / II: T[dV]P[Sar][NMeV]; ester I:1-I:C, II:1-II:C; linker I:N-II:N via Actinocin(9to1))	P388 Leukemia	milligram/killogram	0.0625
Cc1c2oc3c(C)c4oc(CC(=O)NCCCCN)nc4c(C(=O)N[C@@H]4C(=O)N[C@H](C(C)C)C(=O)N5CCC[C@H]5C(=O)N(C)CC(=O)N(C)[C@@H](C(C)C)C(=O)O[C@@H]4C)c3nc-2c(C(=O)N[C@@H]2C(=O)N[C@H](C(C)C)C(=O)N3CCC[C@H]3C(=O)N(C)CC(=O)N(C)[C@@H](C(C)C)C(=O)O[C@@H]2C)c(N)c1=O	P388 Leukemia	milligram/killogram	0.05
Cc1c2oc3c(C)c4oc(-c5ccccc5)nc4c(C(=O)N[C@@H]4C(=O)N[C@H](C(C)C)C(=O)N5CCC[C@H]5C(=O)N(C)CC(=O)N(C)[C@@H](C(C)C)C(=O)O[C@@H]4C)c3nc-2c(C(=O)N[C@@H]2C(=O)N[C@H](C(C)C)C(=O)N3CCC[C@H]3C(=O)N(C)CC(=O)N(C)[C@@H](C(C)C)C(=O)O[C@@H]2C)c(N)c1=O	P388 Leukemia	milligram/killogram	0.03
Cc1c2oc3c(C)c(O)c(N)c(C(=O)N[C@@H]4C(=O)N[C@H](C(C)C)C(=O)N5CCC[C@H]5C(=O)N(C)CC(=O)N(C)[C@@H](C(C)C)C(=O)O[C@@H]4C)c3nc-2c(C(=O)N[C@@H]2C(=O)N[C@H](C(C)C)C(=O)N3CCC[C@H]3C(=O)N(C)CC(=O)N(C)[C@@H](C(C)C)C(=O)O[C@@H]2C)c(N)c1=O	P388 Leukemia	milligram/killogram	0.025
Cc1nc2c(C(=O)N[C@@H]3C(=O)N[C@H](C(C)C)C(=O)N4CCC[C@H]4C(=O)N(C)CC(=O)N(C)[C@@H](C(C)C)C(=O)O[C@@H]3C)c3nc4c(C(=O)N[C@@H]5C(=O)N[C@H](C(C)C)C(=O)N6CCC[C@H]6C(=O)N(C)CC(=O)N(C)[C@@H](C(C)C)C(=O)O[C@@H]5C)c(N)c(=O)c(C)c-4oc3c(C)c2o1	P388 Leukemia	milligram/killogram	0.03
